Test system: NCI-H23 lung
Experiment: NCI tumour cell line growth inhibition, 48 h
Entries annotated with measured GI50

The following molecules have reported results that may help.
Smiles code: COc1cc(/C=C/c2cc(/C=C/c3ccc(O)c(OC)c3)n(C(=O)c3ccc(Cl)cc3)n2)ccc1O
GI50: 2.35 µM
//
Smiles code: Cc1cnc2n1S(=O)(=O)c1cc(C(=O)Nc3cccc4nsnc34)c(Cl)cc1S2
GI50: 18 µM

Kindly consider the entry below.
Prompt: Quick one: GI50 for C=C(c1ccc(OC)c(/C=C/C(=O)c2ccc3c(c2)OCO3)c1)c1cc(OC)c(OC)c(OC)c1 ?
Response: 3.2 µM

====

System: M14 melanoma
Assay: NCI tumour cell line growth inhibition, 48 h; in the data active = GI50 below about 0.43 µM; inactive = the rest
Lab note: assign the record to one of active, inactive

Prompt: Tell me the recorded outcome of this test for CNC(=O)c1ccc(N2C(=S)N(c3cnc(C#N)c(C(F)(F)F)c3)C(=O)C23CCC3)cc1F .
Response: inactive

Prompt: Tell me the recorded outcome of this test for CC(C)(C)C(=O)OCOP(=O)(NCc1ccccc1)C1CCCN(O)C1=O (stereo not drawn) .
Response: inactive

Prompt: Tell me the recorded outcome of this test for COc1cc2c(cc1OC(C)C)[C@H](c1ccc(Cl)cc1)N(c1ccc(N(C)CC3CCC(N4CCN(C)C(=O)C4)CC3)cc1)C(=O)C2 (stereo partly drawn) .
Response: inactive

Prompt: Tell me the recorded outcome of this test for CCCCCCCCCCCCCCCC1=NCC[N+]1(CCO)CCO .
Response: inactive

Prompt: Tell me the recorded outcome of this test for COc1ccc(C(=O)C(CN(C)C)CN(C)C)cc1 .
Response: inactive

Prompt: Tell me the recorded outcome of this test for O=c1c2ccccc2sc2c(NCCCNCCO)nc3ccccc3c12 .
Response: inactive

Prompt: Tell me the recorded outcome of this test for Cc1ccc(O)c(NC(=O)c2cccc(Nc3ccnc(C(F)(F)F)c3)c2)c1 .
Response: inactive

Prompt: Tell me the recorded outcome of this test for NS(=O)(=O)OC[C@H]1C[C@@H](Nc2ccnc3cc(-c4cccc(SC(F)(F)F)c4)nn23)[C@H](O)[C@@H]1O .
Response: active
